- experimental target: MCL-1 (Homo sapiens (Human))
- Sequence (Q07820 whole entry): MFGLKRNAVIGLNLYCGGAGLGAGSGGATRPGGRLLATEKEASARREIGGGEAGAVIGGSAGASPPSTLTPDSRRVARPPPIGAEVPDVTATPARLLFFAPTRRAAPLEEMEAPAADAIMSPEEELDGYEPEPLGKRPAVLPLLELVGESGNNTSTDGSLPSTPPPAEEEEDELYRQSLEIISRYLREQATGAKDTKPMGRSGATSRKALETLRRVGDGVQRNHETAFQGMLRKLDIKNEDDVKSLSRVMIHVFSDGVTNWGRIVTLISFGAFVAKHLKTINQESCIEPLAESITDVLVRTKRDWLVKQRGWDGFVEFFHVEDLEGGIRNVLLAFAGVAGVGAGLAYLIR
- test name: Cell free Mcl-1:Bim affinity assay (fluorescence polarization competition)
- Format: binding
- condition notes: 15 nM MCL-1, 5 nM FITC-Bim, 1 hour at room temperature; class symbols; read-out: BIM_Ki
Please go through the items and note down their Ki.

Return the recorded Ki value; entry: CO[C@@H]1/C=C/CCN(C)C(=O)NS(=O)(=O)c2ccc3c(c2)N(C[C@@H]2CC[C@H]21)C[C@@]1(CCCc2cc(Cl)ccc21)CO3 [Example 107]
1 to 100 nM

Return the recorded Ki value; entry: CN1CCN(CCO[C@H]2/C=C/COC(C)(C)C(=O)NS(=O)(=O)c3ccc4c(c3)N(C[C@@H]3CC[C@H]32)C[C@@]2(CCCc3cc(Cl)ccc32)CO4)CC1 [Example 259]
< 1 nM

Return the recorded Ki value; entry: CN1C/C=C/[C@H](OC(=O)NCC2CC2)[C@@H]2CC[C@H]2CN2C[C@@]3(CCCc4cc(Cl)ccc43)COc3ccc(cc32)S(=O)(=O)NC(=O)C1(C)C [Example 205]
1 to 100 nM
